Experimental System: ROCK2 (Homo sapiens (Human), UniProt O75116)
Sequence (O75116 whole entry, species assumed): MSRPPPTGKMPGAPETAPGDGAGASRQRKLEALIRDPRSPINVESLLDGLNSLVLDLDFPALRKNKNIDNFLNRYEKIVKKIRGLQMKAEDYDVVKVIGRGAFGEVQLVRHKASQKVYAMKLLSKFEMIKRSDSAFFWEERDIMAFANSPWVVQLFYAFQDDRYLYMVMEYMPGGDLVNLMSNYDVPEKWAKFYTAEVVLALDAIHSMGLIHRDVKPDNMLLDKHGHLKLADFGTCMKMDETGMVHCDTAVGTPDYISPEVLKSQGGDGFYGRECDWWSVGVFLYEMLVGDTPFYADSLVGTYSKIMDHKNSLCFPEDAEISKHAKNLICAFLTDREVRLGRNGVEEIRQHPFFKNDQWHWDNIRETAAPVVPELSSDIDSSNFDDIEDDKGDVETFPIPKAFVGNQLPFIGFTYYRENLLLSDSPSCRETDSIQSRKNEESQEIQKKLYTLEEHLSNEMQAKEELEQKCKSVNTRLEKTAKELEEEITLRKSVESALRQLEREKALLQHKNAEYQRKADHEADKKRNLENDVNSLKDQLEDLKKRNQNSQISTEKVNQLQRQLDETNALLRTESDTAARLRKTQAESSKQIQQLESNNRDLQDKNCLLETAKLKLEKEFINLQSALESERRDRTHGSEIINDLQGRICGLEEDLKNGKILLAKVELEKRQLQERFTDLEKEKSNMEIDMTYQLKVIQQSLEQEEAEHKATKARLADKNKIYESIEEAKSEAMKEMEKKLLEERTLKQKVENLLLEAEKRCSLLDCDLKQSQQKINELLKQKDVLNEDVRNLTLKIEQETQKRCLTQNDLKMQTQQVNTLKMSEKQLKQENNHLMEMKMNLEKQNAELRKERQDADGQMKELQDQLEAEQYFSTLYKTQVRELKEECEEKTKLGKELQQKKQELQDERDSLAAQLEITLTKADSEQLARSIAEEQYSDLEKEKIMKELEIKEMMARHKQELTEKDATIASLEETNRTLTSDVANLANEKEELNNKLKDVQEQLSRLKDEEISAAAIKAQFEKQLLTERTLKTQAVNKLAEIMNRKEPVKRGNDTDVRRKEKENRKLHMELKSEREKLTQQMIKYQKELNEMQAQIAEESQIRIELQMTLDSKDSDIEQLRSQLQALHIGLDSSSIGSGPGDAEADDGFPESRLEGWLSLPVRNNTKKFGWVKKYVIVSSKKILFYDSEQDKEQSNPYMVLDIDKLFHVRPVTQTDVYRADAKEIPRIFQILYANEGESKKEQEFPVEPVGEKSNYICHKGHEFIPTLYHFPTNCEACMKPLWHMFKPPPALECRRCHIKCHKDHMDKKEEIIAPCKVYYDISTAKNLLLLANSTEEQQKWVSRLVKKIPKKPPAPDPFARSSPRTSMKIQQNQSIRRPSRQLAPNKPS
Method: biochemical
Counter-ions that a name gives are not always drawn.
Quick reference for IC50 among some compounds
Experimental Readout: IC50

Compound	Measured Result
COc1nc(N2CCC(N3CC(C)OC(C)C3)C2=O)ccc1-c1cn[nH]c1 (racemic)	0.1 to 2.2 µM
O=C1C(Nc2cccc(F)c2)CCN1c1ccc(-c2cn[nH]c2)cc1 (stereo not drawn)	< 0.01 µM
O=C1C(Nc2cccc(OCC(F)F)c2)CCN1c1ccc(-c2cn[nH]c2)cc1 (single isomer, unassigned) [Example 238]	0.01 to 0.1 µM
COc1cc(N2CCC(Nc3c(F)cccc3OC)C2=O)ccc1-c1cn[nH]c1 (single isomer, unassigned)	0.01 to 0.1 µM
COc1cccc(NC2CCN(c3ccc(-c4cn[nH]c4)c(F)c3F)C2=O)c1 (single isomer, unassigned) [Example 305]	0.01 to 0.1 µM
COc1cc(NC2CCN(c3ccc(-c4cn[nH]c4)c(Cl)c3)C2=O)ccc1F (single isomer, unassigned) [Example 160]	0.01 to 0.1 µM
COc1cccc([C@@H](C)NC2CCN(c3ccc(-c4cn[nH]c4)cc3)C2=O)c1 (stereo partly drawn) [Example 60, TFA]	0.1 to 2.2 µM
COc1ccc(N[C@@H]2CCN(c3ccc(-c4cn[nH]c4)cc3)C2=O)cc1OC	0.1 to 2.2 µM
O=C1C(Nc2nc3ccccc3[nH]2)CCN1c1ccc(-c2cn[nH]c2)cc1 (single isomer, unassigned) [Example 56]	0.01 to 0.1 µM
COc1cccc(C2CCN(c3ccc(-c4cn[nH]c4)cc3)C2=O)c1 (stereo not drawn)	< 0.01 µM
COc1nc(N2CCC(N3CCC(F)(F)CC3)C2=O)ccc1-c1cn[nH]c1 (racemic) [Example 282, hydrochloride]	0.01 to 0.1 µM
COc1cc(F)cc(OC2CCN(c3ccc(-c4cn[nH]c4)c(OC)n3)C2=O)c1 (single isomer, unassigned) [Example 173]	< 0.01 µM
COc1c(F)cccc1NC1CCN(c2ccc(-c3cn[nH]c3)c(F)c2)C1=O (single isomer, unassigned) [Example 337]	0.1 to 2.2 µM
O=C1C(Cc2ccc(F)cc2)CCN1c1ccc(-c2cn[nH]c2)cc1 (stereo not drawn)	0.1 to 2.2 µM
COc1cccc(NC2CCN(c3ccc(-c4cn[nH]c4)c(OC)c3)C2=O)c1 (stereo not drawn) [Example 68]	< 0.01 µM

====

Experimental System: ROCK2 (Homo sapiens (Human), UniProt O75116)
pIC50: −log10 of the molar value.

Compound	pIC50
COCc1cc(N2CCC(Nc3ccc(F)c(OC)c3)C2=O)ccc1-c1cn[nH]c1 (single isomer, unassigned)	5.66 to 7.00
COc1cc(F)cc(NC2CCN(c3ccc(-c4cn[nH]c4)cc3F)C2=O)c1 (single isomer, unassigned)	7.00 to 8.00
COc1cc(F)cc(NC2CCN(c3ccc(-c4cn[nH]c4)c(Cl)c3)C2=O)c1 (single isomer, unassigned)	5.66 to 7.00
COc1ccc(F)c(NC2CCN(c3ccc(-c4cn[nH]c4)c(F)c3)C2=O)c1 (single isomer, unassigned)	7.00 to 8.00
COc1cccc(NC2CCN(c3ccc(-c4ccnc(N)n4)cc3)C2=O)c1 (single isomer, unassigned)	7.00 to 8.00
COc1cc(NC2CCN(c3ccc(-c4cn[nH]c4)c(F)c3F)C2=O)ccc1F (single isomer, unassigned)	7.00 to 8.00

====

Experimental System: ROCK2 (Homo sapiens (Human))
Method: biochemical
pIC50: −log10 of the molar value.

Molecule	pIC50
COc1nc(N2CCC(Nc3cccc(C(N)=O)c3)C2=O)ccc1-c1cn[nH]c1 (racemic) [Example 258]	> 8.00
COc1cc(N2CCC(Nc3cccc(F)c3OC)C2=O)ccc1-c1cn[nH]c1 (single isomer, unassigned) [Example 151]	> 8.00
COc1cccc(NC2CCN(c3ccc(-c4ccnc(N)n4)cc3)C2=O)c1 (single isomer, unassigned) [Example 78]	7.00 to 8.00
O=C1C(Nc2cncnc2)CCN1c1ccc(-c2cn[nH]c2)cc1 (racemic) [Example 227]	7.00 to 8.00
COc1cccc(NC2CCN(c3ccc(-c4cn[nH]c4)c(C(F)(F)F)c3)C2=O)c1 (single isomer, unassigned) [Example 367]	5.66 to 7.00
COc1nc(N2CCC(Nc3ccc4c(c3)OCCO4)C2=O)ccc1-c1cn[nH]c1 (racemic) [Example 256]	7.00 to 8.00
COc1nc(N2CCC(Nc3cccc(S(N)(=O)=O)c3)C2=O)ccc1-c1cn[nH]c1 (racemic) [Example 268]	> 8.00
COc1cc(NC2CCN(c3ccc(-c4cn[nH]c4)cc3Cl)C2=O)ccc1F (single isomer, unassigned) [Example 162]	5.66 to 7.00
Cc1nc2ccc(NC3CCN(c4ccc(-c5cn[nH]c5)cc4)C3=O)cc2s1 (stereo not drawn) [Example 115]	5.66 to 7.00
COc1ccc(F)c(NC2CCN(c3ccc(-c4cn[nH]c4)c(C(F)(F)F)c3)C2=O)c1 (single isomer, unassigned) [Example 373]	5.66 to 7.00
COc1ccc(NC2CCN(c3ccc(-c4cn[nH]c4)cc3)C2=O)cc1F (single isomer, unassigned) [Example 13]	5.66 to 7.00
COc1ccc(NC2CCN(c3ccc(-c4cn[nH]c4)c(Cl)c3)C2=O)cc1F (single isomer, unassigned) [Example 156]	5.66 to 7.00
O=C1C(CCc2ccccc2Cl)CCN1c1ccc(-c2cn[nH]c2)cc1 (stereo not drawn) [Example 100]	5.66 to 7.00
O=C1[C@H](N2CCCc3ccccc32)CCN1c1ccc(-c2cn[nH]c2)cc1 [Example 394]	7.00 to 8.00
CCc1nc(N2CCC(Nc3cc(F)cc(OC)c3)C2=O)ccc1-c1cn[nH]c1 (single isomer, unassigned) [Example 315]	7.00 to 8.00

====

Experimental System: ROCK2 (Homo sapiens (Human))
Method: biochemical
pIC50: −log10 of the molar value.
Quick reference for pIC50 among some compounds
Experimental Readout: pIC50

Compound	Experimental System	Measured Result
COc1c(F)cccc1NC1CCN(c2ccc(-c3cn[nH]c3)c(C#N)c2)C1=O (single isomer, unassigned) [Example 376]	ROCK2 (Homo sapiens (Human))	5.66 to 7.00
Cc1nc(N2CCC(Nc3cccc(OC(F)F)c3)C2=O)ccc1-c1cn[nH]c1 (single isomer, unassigned) [Example 201]	ROCK2 (Homo sapiens (Human))	7.00 to 8.00
COc1cc(NC2CCN(c3ccc(-c4cn[nH]c4)c(OC)c3)C2=O)ccc1F (single isomer, unassigned) [Example 155]	ROCK2 (Homo sapiens (Human))	> 8.00
COc1ccc(NC2CCN(c3ccc(-c4cn[nH]c4)cc3)C2=O)c(F)c1 (single isomer, unassigned) [Example 19]	ROCK2 (Homo sapiens (Human))	5.66 to 7.00

====

Experimental System: ROCK2 (Homo sapiens (Human), UniProt O75116);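 note: rho kinase enzyme reaction halted with EDTA, phospho- and non-phospho peptide separated for read-out, kinase activity inhibition derived across a dose-response series, DMSO under 2%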
Method: biochemical
Where a name gives a salt, the structure may show the parent alone.
Quick reference for IC50 among some compounds

Compound	Experimental System	IC50
N#Cc1cccc(CC2CCN(c3ccc(-c4cn[nH]c4)cc3)C2=O)c1 (centres unmarked)	ROCK2 (Homo sapiens (Human), UniProt O75116)	100 to 2200 nM
COCc1cc(N2CCC(Nc3cc(F)cc(OC)c3)C2=O)ccc1-c1cn[nH]c1 (single isomer, unassigned) [Example 186]	ROCK2 (Homo sapiens (Human), UniProt O75116)	10 to 100 nM
COc1cc(F)cc(NC2CCN(c3ccc(-c4cn[nH]c4)c(C(F)F)c3)C2=O)c1 (single isomer, unassigned) [Example 177]	ROCK2 (Homo sapiens (Human), UniProt O75116)	100 to 2200 nM
COc1cccc(NC2C(=O)N(c3ccc(-c4cn[nH]c4)cc3)C[C@H]2CO)c1 (single isomer, unassigned)	ROCK2 (Homo sapiens (Human), UniProt O75116)	< 10 nM
COc1cccc(NC2CCN(c3ccc(-c4cn[nH]c4)cc3)C2=O)c1C (single isomer, unassigned)	ROCK2 (Homo sapiens (Human), UniProt O75116)	10 to 100 nM
COc1cccc(NC2CCN(c3ccc(-c4cn[nH]c4)c(OC)n3)C2=O)c1C (centres unmarked)	ROCK2 (Homo sapiens (Human), UniProt O75116)	< 10 nM
COc1cc(NC2CCN(c3ccc(-c4cn[nH]c4)cc3)C2=O)ccc1F (single isomer, unassigned) [Example 18]	ROCK2 (Homo sapiens (Human), UniProt O75116)	< 10 nM
COc1nc(N2CCC(N3CCC(C(F)(F)F)CC3)C2=O)ccc1-c1cn[nH]c1 (racemic) [Example 285, hydrochloride]	ROCK2 (Homo sapiens (Human), UniProt O75116)	100 to 2200 nM
COc1c(F)cccc1NC1CCN(c2ccc(-c3cn[nH]c3)c(F)c2)C1=O (single isomer, unassigned) [Example 336]	ROCK2 (Homo sapiens (Human), UniProt O75116)	< 10 nM
COc1c(F)cccc1NC1CCN(c2ccc(-c3cn[nH]c3)cc2F)C1=O (single isomer, unassigned)	ROCK2 (Homo sapiens (Human), UniProt O75116)	100 to 2200 nM
COc1nc(N2CCC(Nc3cccc(OCC4CC4)c3)C2=O)ccc1-c1cn[nH]c1 (single isomer, unassigned) [Example 214]	ROCK2 (Homo sapiens (Human), UniProt O75116)	< 10 nM
COc1cccc(NC2CCN(c3ccc(-c4cn[nH]c4)cn3)C2=O)c1 (single isomer, unassigned)	ROCK2 (Homo sapiens (Human), UniProt O75116)	< 10 nM
COc1nc(N2CCC(N3CCOC[C@H]3C)C2=O)ccc1-c1cn[nH]c1 (mixture of isomers)	ROCK2 (Homo sapiens (Human), UniProt O75116)	10 to 100 nM
COc1nc(N2CCC(Nc3cc(C)n(C)n3)C2=O)ccc1-c1cn[nH]c1 (racemic)	ROCK2 (Homo sapiens (Human), UniProt O75116)	100 to 2200 nM

The origin of these recorded values is patent US10112929B2.
